test system: SF-295 CNS; test: NCI tumour cell line growth inhibition, 48 h; in the data active = GI50 below about 0.43 µM; inactive = the rest
Outcome codes: active, inactive

Molecule: Cc1nc2cc(Nc3nc(Nc4ccc(F)cc4)nc(N4CCN(C)CC4)n3)ccc2n1Cc1ccccc1
Assigned Class: inactive
--
Molecule: c1cc[c]([Sn]([S]c2cccc3cccnc23)([S]c2cccc3cccnc23)[c]2ccccc2)cc1
Assigned Class: active
--
Molecule: CCCCCCNc1nc(N2CCOCC2)c2[nH]c(NCCCCCC)nc2n1
Assigned Class: inactive
--
Molecule: C(=C\c1nccc2c1[nH]c1ccccc12)/c1ccccc1
Assigned Class: inactive
--
Molecule: CNC(=O)OC1C(O[C@H]2C[C@H]3[C@@H]4CC=C5C[C@@H](O)CC[C@]5(C)[C@H]4CC[C@]3(C)[C@H]2[C@H](C)C(=O)CCC(C)C)OCC(O)C1OC1OCC(O)C(O)C1OC(=O)c1ccc(OC)cc1 (some centres not stated)
Assigned Class: active
--
Molecule: CCCCCCC#CC#Cc1cccc(=O)o1
Assigned Class: inactive
--
Molecule: COc1ccc2c(c1)cn1c3ccc(O)cc3[nH]c(=O)c21
Assigned Class: active
--
Molecule: CS(=O)(=O)CCn1c(=O)c(Oc2ccc(F)cc2F)cc2cnc(NC3CCOCC3)nc21
Assigned Class: inactive
--
Molecule: CCOC(=O)N[C@H]1CCc2c(Br)c(OC)c(OC)c(OC)c2-c2ccc(SC)c(=O)cc21
Assigned Class: active
--
Molecule: O=C(NNS(=O)(=O)c1ccc(F)cc1)c1cccnc1Nc1ccc(Cl)cc1Cl
Assigned Class: inactive
--
Molecule: O=[N+]([O-])[O-].O=[N+]([O-])[O-].[Au].[Au].c1ccc([P-]c2ccccc2)cc1.c1ccc([P-]c2ccccc2)cc1
Assigned Class: inactive
--
Molecule: Nc1ccc2ccc(NS(=O)(=O)N3CCCCC3)cc2c1
Assigned Class: active
--
Molecule: O=C(Nc1ccc(Cl)cc1)c1cc(S(=O)(=O)Nc2nnc(-c3ccccc3)c(-c3ccccc3)n2)c(SCc2ccccc2)cc1Cl
Assigned Class: inactive
--
Molecule: CC(=O)[C-](C(C)=O)c1ccccc1.CC(=O)[C-](C(C)=O)c1ccccc1.CC[O-].CC[O-].[Ti+4]
Assigned Class: inactive
--
Molecule: C#Cc1cccc(Oc2ccc(NC(=O)CCl)cc2)c1
Assigned Class: inactive
--
Molecule: CO[C@@]12C[C@H]3[C@@H]([C@@H](O)[C@@H](OC(=O)/C=C/c4ccccc4)[C@@]4(O)C(C)(C)CCC[C@]34C)[C@@H](C)C1=CC(=O)O2
Assigned Class: inactive
--
Molecule: COc1cc(C2=NN(c3ccc(S(N)(=O)=O)cc3)C(c3ccc(Cl)cc3)C2)cc(OC)c1OC (configuration not stated)
Assigned Class: inactive

====

tested on: OVCAR-8 ovarian; test: NCI tumour cell line growth inhibition, 48 h
Property: TGI

Molecule: COC(=O)OCc1ccc2c(c1)C(=O)c1c-2n(CCCBr)c(=O)c2cc([N+](=O)[O-])ccc12
Property: TGI
Measurement: > 100 µM
--
Molecule: CCCN1C(=O)CSC1=Nc1ccc2cc3ccc(N=C4SCC(=O)N4CCC)cc3nc2c1
Property: TGI
Measurement: > 100 µM
--
Molecule: CC(O)C(O)C(O)C(/C=N\Nc1ccccc1)=N/Nc1ccccc1 (stereo not drawn)
Property: TGI
Measurement: 38.1 µM
--
Molecule: O[C@H]1[C@H]2[C@H](O)C[C@H](CCOCc3ccccc3)CN2C[C@H]1O
Property: TGI
Measurement: > 100 µM
--
Molecule: Nc1cc(N2CCOCC2)nc(=O)n1-c1ccc(Cl)cc1
Property: TGI
Measurement: > 100 µM
--
Molecule: O=C(CNc1ncco1)Nc1ccc(S(=O)(=O)c2ccc(NC(=O)CNc3ncco3)cc2)cc1
Property: TGI
Measurement: 15.7 µM
--
Molecule: Cn1c(=O)cc(NCCc2ccccc2)[nH]c1=O
Property: TGI
Measurement: > 100 µM
--
Molecule: c1cc[c]([Sn]([S]c2cccc3cccnc23)([S]c2cccc3cccnc23)[c]2ccccc2)cc1
Property: TGI
Measurement: 0.895 µM
--
Molecule: CCCSc1ccc2[nH]c(N3C(=O)/C(=C/c4cc(OC)c(OC)c(OC)c4)N=C3c3ccccc3)cc2c1
Property: TGI
Measurement: > 37.5 µM
--
Molecule: COc1ccc2c(c1)cn1c3ccc(O)cc3[nH]c(=O)c21
Property: TGI
Measurement: 2.82 µM
--
Molecule: O=[N+]([O-])c1ccc2c(c1)nc(Cc1ccc(Cl)cc1)n2C[C@@H]1CCCN2CCCCC12 (stereo partly drawn)
Property: TGI
Measurement: 30.4 µM
--
Molecule: Nc1ccc(Oc2ccc(C34CC5CC(C3)CC(c3ccc(Oc6ccc(N)cc6)cc3)(C5)C4)cc2)cc1
Property: TGI
Measurement: 23.6 µM
--
Molecule: Cc1cnoc1NS(=O)(=O)c1ccc(Nc2nnc(/C=C/c3c(O)ccc4ccccc34)c(=O)n2N)cc1
Property: TGI
Measurement: > 100 µM
--
Molecule: CCCCCCCCCCCCCCCC(=O)OC(COC(C)=O)CO[P+](=O)O (stereo not drawn)
Property: TGI
Measurement: 44.4 µM
--
Molecule: NC(Cc1ccnnc1)C(=O)O (stereo not drawn)
Property: TGI
Measurement: > 100 µM
--
Molecule: COC(=O)C1=C(O)CCCC(CCC(C)=O)=C1
Property: TGI
Measurement: > 100 µM
--
Molecule: CCc1c(O)c2c(c(O)c1C(C)=O)C(=O)c1c(cc(O)c(C(=O)O)c1C(=O)O)C2=O
Property: TGI
Measurement: > 100 µM
--
Molecule: Cc1ccc(C2C3=C(N=c4s/c(=C/c5ccc(Br)cc5)c(=O)n42)c2ccc4ccccc4c2OCC3)cc1 (stereo not drawn)
Property: TGI
Measurement: > 100 µM
--
Molecule: COC(=O)C1(C2CC/C(C)=C/CC/C(C)=C/CC[C@@]3(C)O[C@@H]3C2)CC1 (stereo partly drawn)
Property: TGI
Measurement: > 65.1 µM
--
Molecule: O=S(=O)(NCCNc1cc(-c2cn(-c3ccccc3)nc2-c2cccc(O)c2)ccn1)c1ccc(Cl)cc1
Property: TGI
Measurement: 22.6 µM
--
Molecule: COc1cc2c(cc1C)NC(=O)/C2=C/c1c(Cl)n(-c2ccccc2)c2ccccc12
Property: TGI
Measurement: > 100 µM
--
Molecule: O=S(=O)(O)c1cc(N=Nc2cc(S(=O)(=O)O)c3cccnc3c2O)ccc1/C=C/c1ccc(N=Nc2cc(S(=O)(=O)O)c3cccnc3c2O)cc1S(=O)(=O)O
Property: TGI
Measurement: > 100 µM
--
Molecule: O=C(NCCNCCNC(=O)C(F)(F)F)C(F)(F)F
Property: TGI
Measurement: > 100 µM
--
Molecule: COC(=O)CCc1cccnc1/C=N/O
Property: TGI
Measurement: > 100 µM
--
Molecule: COC(=O)/C(=C/c1ccc(OC)cc1)NC(=O)c1ccccc1
Property: TGI
Measurement: > 100 µM
--
Molecule: C#C[C@]1(O)CC[C@H]2[C@@H]3CCC4=C/C(=N\OCCN(CC)CC)CC[C@]4(C)[C@H]3CC[C@@]21C
Property: TGI
Measurement: 24.6 µM
--
Molecule: O=[N+]([O-])c1ccc(/C=C(/c2ccc([N+](=O)[O-])o2)S(=O)(=O)c2ccccc2)o1
Property: TGI
Measurement: 18.3 µM
--
Molecule: Nc1cc(-c2ccc(Cl)cc2)nn1-c1nc2ccccc2nc1-c1ccccc1
Property: TGI
Measurement: > 100 µM
--
Molecule: Nc1ccc(-c2nc3cc(F)ccc3s2)cc1CO
Property: TGI
Measurement: > 100 µM
--
Molecule: CO[C@@]12C[C@H]3[C@@H]([C@@H](O)[C@@H](OC(=O)/C=C/c4ccccc4)[C@@]4(O)C(C)(C)CCC[C@]34C)[C@@H](C)C1=CC(=O)O2
Property: TGI
Measurement: 25.6 µM
--
Molecule: CS(=O)(=O)CCn1c(=O)c(Oc2ccc(F)cc2F)cc2cnc(NC3CCOCC3)nc21
Property: TGI
Measurement: > 25 µM
--
Molecule: COc1ccc(N=Nc2ccc3oc(=O)c(C(=O)Nc4ccc(Cl)cc4)cc3c2)cc1
Property: TGI
Measurement: > 10 µM
--
Molecule: Cc1cccc2c1O/C(=C\c1ccc([N+](=O)[O-])o1)C2=O
Property: TGI
Measurement: 7.93 µM
--
Molecule: Cc1cc(C)cc(Nc2ccc([N+](=O)[O-])c(NCCN3CCOCC3)n2)c1
Property: TGI
Measurement: > 100 µM
--
Molecule: C(=C\c1nccc2c1[nH]c1ccccc12)/c1ccccc1
Property: TGI
Measurement: > 100 µM
--
Molecule: COc1ccc(N2C(=O)[C@@H]3[C@H](C2=O)c2[nH]c4ccccc4c2C2CCC(C(C)(C)C)C[C@@H]23)cc1 (stereo partly drawn)
Property: TGI
Measurement: 42.2 µM
--
Molecule: CC1(C)CCC[C@@]2(C)C1C(=O)[C@@H]1O[C@]1(C)[C@@H]2CO (stereo partly drawn)
Property: TGI
Measurement: > 100 µM
--
Molecule: O=C1c2ccccc2C(C2c3ccccc3C(=O)c3cc(Br)ccc32)c2ccc(Br)cc21 (stereo not drawn)
Property: TGI
Measurement: > 100 µM
